# system under test: tumor necrosis factor alpha (TNFα) (human, UniProt P01375 77-233)
# Sequence (P01375 77-233 limits assumed): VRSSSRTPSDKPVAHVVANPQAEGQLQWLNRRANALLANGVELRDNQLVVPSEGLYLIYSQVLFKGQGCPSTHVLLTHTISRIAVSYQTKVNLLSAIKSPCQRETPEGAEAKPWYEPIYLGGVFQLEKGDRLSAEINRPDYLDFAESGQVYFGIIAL
# assay remarks: affinity by IC50 ELISA (so named in paragraph 380)
experimental readout: Affinity
Please answer using a numeric value trailed by its unit.

{"columns": ["binder", "Affinity"],
 "data": [
  ["MAb 698 (antibody, V domains shown, also called 131 E11; H1272/L250) VH: EVQLLESGGGLIQPGGSLRLSCAASGFTVGNNYMSWVRQAPGKGLEWVSVIYSAGSTYYADSVKGRFIISRDNSKDTVYLQMNSLRVDDTAVYYCARNYYGSTYDYWGQGTLVTVSS VL: EIVLTQSPVTLSVPPGERASLSCRASQNIYTAVAWYQQKPGQAPRLLIYGASTRATGIPARFSGGGSGTDYTLTISSLESEDFAVYHCQQYHSWPLTFGGGTKLEIK", "2.3 nM"],
  ["MAb 696 (antibody, V domains shown, also called 121 E1B; H1193/L250) VH: EVQLVESGGGLIQPGGSLRLSCAASGFTVSSNYMSWVRQAPGKGLEWVSVIYSGGRTYYADSVKGRFTISRDSSKNTLYLQMNSLRAEDTAVYYCARNYYGSTYDYWGQGTLVTVSS VL: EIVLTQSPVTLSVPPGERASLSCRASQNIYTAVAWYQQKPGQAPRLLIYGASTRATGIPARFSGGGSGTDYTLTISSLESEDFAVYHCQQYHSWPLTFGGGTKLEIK", "0.6 nM"]
]}

Proceeding to the next binder to report its Affinity.
# binder MAb 714 (antibody, V domains shown, also called 141 A10; H1277/L250) VH: EVQLVESGGGLVQPGGSLKLSCAASGFTVSSNYMSWVRQAPGKGLEWVSVIYRGGSTYYADSVKGRFTISRDISRNMVYLQMNSLRAEDTAVYYCARNYYGSTYDYWGQGTLVTVSS VL: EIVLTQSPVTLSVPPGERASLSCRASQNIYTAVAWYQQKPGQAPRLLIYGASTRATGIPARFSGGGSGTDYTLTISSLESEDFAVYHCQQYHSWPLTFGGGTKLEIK ; its Affinity = 0.4 nM

Source: patent US20080267974A1
